Provenance of the data: patent US11597752B2

Target: HLA-A*02:01 (Homo sapiens, UniProt P04439, D140Y/D185E/D98H/E176V/E277Q/G131W/G231S/I119V/I121R/I166T/I218V/L300P/L318F/N151K/N90K/P208A/P217A/Q86G/Q94H/R138H/R169H/T345S)
Experiment: MHC binding assay (UV-ligand exchange, beta2m ELISA, peptide exchange yield)
Conditions: binding to HLA-A*02:01, β2m ELISA
From the text: Candidate peptides for T cell based therapies according to the present invention were further tested for their MHC binding capacity (affinity). The individual peptide-MHC complexes were produced by UV-ligand exchange, where a UV-sensitive peptide is cleaved upon UV-irradiation, and exchanged with the peptide of interest as analyzed. Only peptide candidates that can effectively bind and stabilize the peptide-receptive MHC molecules prevent dissociation of the MHC complexes. […]
Assay Endpoint: Peptide exchange (MHC class I binding score, peptide exchange yield)

| Substance | Result |
| --- | --- |
| 8 (ALMLQGVDLL; listed as Homo sapiens) [compound 8] | “+++” (≥50 = +++) |
| 77 (SLLKRDFGA; listed as Homo sapiens) [compound 77] | “++” (≥20% = ++) |
| 79 (SLAADQLLKL; listed as Homo sapiens) [compound 79] | “++” (≥20% = ++) |
| 68 (SILQFVHMV; listed as Homo sapiens) [compound 68] | “+++” (≥50 = +++) |
